Each recorded value in this set is attributed to patent US4021481A.

# ASSAY_OVERVIEW: Solubility in water
# Assay type: physicochemical
# RUN_CONDITIONS: water, 28°; read-out: Solubility in water at 28°
PROPERTY: solubility (mg/mL)
Reply numerically in mg/mL, unit not repeated.

Q: Need solubility, item CNC(=O)c1c(I)c(NC(C)=O)c(I)c(C(=O)N[C@H]2C(O)O[C@H](CO)[C@@H](O)[C@@H]2O)c1I (stereo partly shown)
A: 14

###

This listing pairs compounds with measured solubility.
# ASSAY_OVERVIEW: Solubility in water
# Type: physicochemical
# RUN_CONDITIONS: water, room temperature; read-out: Solubility in water at room temperature (class)

* CC(=O)N(C)c1c(I)c(C(=O)NC(CO)(CO)CO)c(I)c(N(CCO)C(C)=O)c1I | < 200 mg/mL

Q: What value of solubility has been recorded for this entry: CC(=O)Nc1c(I)c(NC(C)=O)c(I)c(C(=O)N[C@H]2C(O)O[C@H](CO)[C@@H](O)[C@@H]2O)c1I (stereo partly shown)
A: > 500 mg/mL

Q: Quick one: CNC(=O)c1c(I)c(NC(C)=O)c(I)c(C(=O)N(C)C[C@H](O)[C@@H](O)[C@H](O)[C@H](O)CO)c1I
A: > 500 mg/mL

Q: Do the same for CC(=O)N(C)c1c(I)c(C(=O)N(C)C[C@H](O)[C@@H](O)[C@H](O)[C@H](O)CO)c(I)c(N(CCO)C(C)=O)c1I please
A: > 500 mg/mL

###

# Tested on: mice
# ASSAY_OVERVIEW: Intravenous toxicity in mice (LD50)
# Assay type: in vivo
# RUN_CONDITIONS: concentration administered 300 mgI/ml
PROPERTY: Intravenous LD50

Use these answered entries as a reference point.
* CC(=O)Nc1c(I)c(C(=O)N(C)CC(O)CO)c(I)c(C(=O)N(C)CC(O)CO)c1I (centres unmarked) | 13500 mgI/kg
* CNC(=O)c1c(I)c(NC(C)=O)c(I)c(C(=O)N(C)C[C@H](O)[C@@H](O)[C@H](O)[C@H](O)CO)c1I | 10000 mgI/kg
* CC(=O)N(CCO)c1c(I)c(C(=O)N(C)C[C@H](O)[C@@H](O)[C@H](O)[C@H](O)CO)c(I)c(N(CCO)C(C)=O)c1I | 7500 mgI/kg
* CC(=O)Nc1c(I)c(C(=O)N[C@H]2C(O)O[C@H](CO)[C@@H](O)[C@@H]2O)c(I)c(N(C)C(C)=O)c1I (some centres unmarked) | 15000 mgI/kg

Q: Which Intravenous LD50 value is on record for CC(=O)Nc1c(I)c(C(=O)NC[C@H](O)[C@@H](O)[C@H](O)[C@H](O)CO)c(I)c(N(C)C(C)=O)c1I ?
A: 14250 mgI/kg
